# pIC50 against human HIF-PHD2 (Homo sapiens), merged from multiple literature sources
pIC50: −log10 of the molar value.

compound	experimental-system	censoring-qualifier	pIC50
O=C(O)CNC(=O)c1c(O)c2ccc(-c3ccccc3)cc2oc1=O	human HIF-PHD2 (Homo sapiens)	=	6.60
Cn1c(=O)c(C(=O)NCC(=O)O)c(O)c2sc(-c3cncnc3)cc21	human HIF-PHD2 (Homo sapiens)	=	8.08
O=C(O)CNC(=O)C1=C(O)c2c(cccc2-c2ccccc2Cl)C1=O	human HIF-PHD2 (Homo sapiens)	=	8.07
CC1(C)C(=O)C(C(=O)NCC(=O)O)=C(O)c2ccc(O)c(F)c21	human HIF-PHD2 (Homo sapiens)	>	7.00
O=C(O)CNC(=O)c1c(O)c2cccc(-c3cccc(Cl)c3)c2oc1=O	human HIF-PHD2 (Homo sapiens)	=	7.05
O=C(O)c1cnn(-c2nc(O)c3c(cnn3Cc3ccc(-c4ccccc4Cl)cc3)n2)c1	human HIF-PHD2 (Homo sapiens)	=	7.77
Cc1cccc(-c2cccc3c(O)c(C(=O)NCC(=O)O)c(=O)oc23)c1	human HIF-PHD2 (Homo sapiens)	=	6.82
CC1(C)C(=O)C(C(=O)NCC(=O)O)=C(O)c2ccccc21	human HIF-PHD2 (Homo sapiens)	>	7.00
CCOC(=O)C(OC(=O)[C@H](O)CNC(=O)c1ncc(C(=O)NC(c2ccccc2)c2ccccc2)c(O)n1)c1ccccc1 (stereo partly shown)	human HIF-PHD2 (Homo sapiens)	=	6.49
O=C(O)CNC(=O)c1c(O)c2c(n(Cc3ccccc3Cl)c1=O)COCC2	human HIF-PHD2 (Homo sapiens)	=	7.59
O=C(O)CNC(=O)C1=C(O)c2cc(Cl)ccc2[C@@]2(CCCOC2)C1=O	human HIF-PHD2 (Homo sapiens)	>	7.00
O=C(O)c1cnn(-c2nc(O)c3c(cnn3Cc3cccc(OC(F)(F)F)c3)n2)c1	human HIF-PHD2 (Homo sapiens)	=	7.21
CN1CCc2c(c(O)c(C(=O)NCC(=O)O)c(=O)n2Cc2ccc(C(F)(F)F)cc2)C1	human HIF-PHD2 (Homo sapiens)	=	7.34
O=C(O)CCNC(=O)c1ncc(C(=O)NC(c2ccccc2)c2ccc(C(F)(F)F)cc2)c(O)n1 (stereo not shown)	human HIF-PHD2 (Homo sapiens)	=	9.00
O=C(O)c1cnn(-c2nc(O)c3c(cnn3C[C@@H]3CCN(c4ccc(C(F)(F)F)cc4)C3)n2)c1	human HIF-PHD2 (Homo sapiens)	=	7.82
Cc1ccc(C(C)n2ncc3nc(-n4cc(C(=O)O)cn4)nc(O)c32)cc1Cl (single isomer, unassigned)	human HIF-PHD2 (Homo sapiens)	=	7.54
O=C(O)c1cnn(-c2nc(O)c3c(cnn3Cc3cc(C(F)(F)F)cc(Cl)c3F)n2)c1	human HIF-PHD2 (Homo sapiens)	=	7.57
O=C(O)c1cnn(-c2nc(O)c3c(cnn3C(c3cc(F)cc(F)c3)C3CC3)n2)c1 (stereo not shown)	human HIF-PHD2 (Homo sapiens)	=	7.35
CC1(C)C(=O)C(C(=O)NCC(=O)O)=C(O)c2cccnc21	human HIF-PHD2 (Homo sapiens)	>	7.00
O=C(O)CNC(=O)c1c(O)c2c(n(Cc3ccccc3F)c1=O)COC2	human HIF-PHD2 (Homo sapiens)	=	8.34
Cn1c(=O)c(C(=O)NCC(=O)O)c(O)c2c(Cl)nccc21	human HIF-PHD2 (Homo sapiens)	>	7.30
Cn1c(=O)c(C(=O)NCC(=O)O)c(O)c2cc(-c3cccnc3)cnc21	human HIF-PHD2 (Homo sapiens)	>	7.30
C[C@@H](c1ccc(-c2ccccc2)cc1)n1ncc2nc(-n3cc(C(=O)O)cn3)nc(O)c21	human HIF-PHD2 (Homo sapiens)	=	7.57
O=C(O)c1cnn(-c2nc(O)c3c(cnn3C[C@H]3CC[C@H](Oc4ccccc4F)CC3)n2)c1	human HIF-PHD2 (Homo sapiens)	=	7.82
O=C1CCN(C(=O)c2ncc(C(=O)NC(c3ccccc3)c3ccccc3)c(O)n2)CO1	human HIF-PHD2 (Homo sapiens)	=	7.95
CC(C)(COc1ccc(Cl)cc1)Cn1ncc2nc(-n3cc(C(=O)O)cn3)nc(O)c21	human HIF-PHD2 (Homo sapiens)	=	6.72
CC(C)Oc1ccccc1-c1cc2c(O)c(C(=O)NCC(=O)O)c(=O)n(C)c2nn1	human HIF-PHD2 (Homo sapiens)	=	7.85
Cn1ncc2nc(-n3cc(C(=O)O)cn3)nc(O)c21	human HIF-PHD2 (Homo sapiens)	=	6.85
O=C(O)c1cnn(-c2nc(O)c3c(cnn3Cc3ccc(F)c(Br)c3)n2)c1	human HIF-PHD2 (Homo sapiens)	=	7.51
O=C(O)c1cnn(-c2nc(O)c3c(cnn3Cc3ccc(-c4ccccc4)c(F)c3)n2)c1	human HIF-PHD2 (Homo sapiens)	=	7.62
